pIC50: −log10 of the molar value.
What follows is literature data on pIC50 for HPK1 (Homo sapiens (Human), UniProt Q92918).
experimentalEndpoint: pIC50

>>> testvalue("CNc1ncc2c(n1)N1CCN=C1C(c1cc(NC(=O)c3ccnc(C(F)(F)F)c3)ccc1C)=C2")
"5.00 to 7.00"
>>> testvalue("CN1CCN(c2ccc(Nc3ccc(-c4ccnc5[nH]ccc45)c4c3C(=O)NC4)nc2)CC1")
"> 7.00"
>>> testvalue("COc1cccc(F)c1-n1cccc(C(=O)Nc2cc(F)c3nn(C)cc3c2N2C[C@H]3C[C@@H]2CN3)c1=O")
"6.00 to 7.00"
>>> testvalue("CC(C)(N)[C@H]1CN(c2ccc(Nc3ccc(-c4cnc5cc(F)ccn45)c4c3C(=O)NC4)nc2)CCO1 (single isomer, unassigned)")
"> 7.00"
>>> testvalue("CN(C)Cc1nc(Nc2ccc(-c3cnc4cc(F)ccn34)c3c2C(=O)NC3)ccc1N1CCOCC1")
"> 7.00"
>>> testvalue("CCn1cc(Oc2nc(-c3cc4c(c(OC)c3)CCN(C)C4)cnc2N)cn1")
7.62
>>> testvalue("COc1cc2c(cc1Nc1ncc3c(N)cc(Oc4ccc5c(c4)CCNC5)cc3n1)CN(C)CC2")
8.66
